Measurement Target: Recombinant STAT6 protein (STAT6 (W123-T658)) (Homo sapiens)
Construct: Recombinant STAT6 protein (STAT6 (W123-T658))
Sequence (P42226 123-658): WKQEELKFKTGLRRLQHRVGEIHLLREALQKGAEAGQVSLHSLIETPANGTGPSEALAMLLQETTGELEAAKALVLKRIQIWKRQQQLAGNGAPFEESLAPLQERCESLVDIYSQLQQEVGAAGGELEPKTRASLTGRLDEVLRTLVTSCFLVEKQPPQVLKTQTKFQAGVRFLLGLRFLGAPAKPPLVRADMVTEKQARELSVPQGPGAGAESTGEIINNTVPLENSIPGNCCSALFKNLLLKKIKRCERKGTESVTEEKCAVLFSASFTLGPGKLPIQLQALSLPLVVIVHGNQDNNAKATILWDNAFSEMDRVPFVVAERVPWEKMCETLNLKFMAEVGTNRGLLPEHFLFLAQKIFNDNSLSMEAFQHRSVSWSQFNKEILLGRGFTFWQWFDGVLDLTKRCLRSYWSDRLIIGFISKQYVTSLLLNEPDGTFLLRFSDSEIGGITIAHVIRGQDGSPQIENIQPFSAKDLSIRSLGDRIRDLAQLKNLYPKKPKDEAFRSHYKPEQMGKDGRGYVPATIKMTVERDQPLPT
Assay Name: STAT6 Fluorescence Polarization (FP) Assay
Assay type: binding
Experimental Setup: STAT6 (W123-T658) 250 nM, probe 5-FAM-Ap[…]-NH2 2 nM, 45-minute incubation; read-out: STAT6 (FP assay IC50 class)
pIC50: −log10 of the molar value.
# reported pIC50; entries follow
Assay Metric: pIC50

>>> endpoint_result("Cn1ccc(C2(O)CCN(C(=O)[C@@H]3CC[C@@H]4CCCC[C@H](NC(=O)c5cc6cc(C(F)P(=O)(O)O)ccc6s5)C(=O)N43)C2)cc1=O (some centres unmarked) [Compound 914]")
"5.52 to 6.52"
>>> endpoint_result("CS(=N)(=O)c1cnc(C2CN(C(=O)[C@@H]3CC[C@@H]4CCCC[C@H](NC(=O)c5cc6cc(C(F)(F)P(=O)(O)O)ccc6s5)C(=O)N43)C2)nc1 (some centres unmarked) [Compound 719]")
"4.52 to 5.52"
>>> endpoint_result("O=C(N[C@H]1CCCC[C@H]2CC[C@@H](C(=O)N3CC(c4cc[nH]c(=O)c4)CC34CC4)N2C1=O)c1ccc2ccc(C(F)(F)P(=O)(O)O)cc2c1 (some centres unmarked) [Compound 877]")
"≥ 6.52"
>>> endpoint_result("COCCNC1(c2ccccn2)CN(C(=O)[C@@H]2CC[C@@H]3CCCC[C@H](NC(=O)c4cc5cc(C(F)P(=O)(O)O)ccc5s4)C(=O)N32)C1 (some centres unmarked) [Compound 568]")
"4.52 to 5.52"
>>> endpoint_result("N#C[C@@H]1[C@@H](c2ccccc2)CN(C(=O)[C@@H]2CC[C@@H]3CCCC[C@H](NC(=O)c4ccc5ccc([C@@H](F)P(=O)(O)O)cc5c4)C(=O)N32)C12CC2 (single isomer, unassigned) [Compound 832]")
"≥ 6.52"

====

Measurement Target: Recombinant STAT3 protein (STAT3 (G127-I722)) (Homo sapiens)
Construct: Recombinant STAT3 protein (STAT3 (G127-I722))
Sequence (P40763 127-722): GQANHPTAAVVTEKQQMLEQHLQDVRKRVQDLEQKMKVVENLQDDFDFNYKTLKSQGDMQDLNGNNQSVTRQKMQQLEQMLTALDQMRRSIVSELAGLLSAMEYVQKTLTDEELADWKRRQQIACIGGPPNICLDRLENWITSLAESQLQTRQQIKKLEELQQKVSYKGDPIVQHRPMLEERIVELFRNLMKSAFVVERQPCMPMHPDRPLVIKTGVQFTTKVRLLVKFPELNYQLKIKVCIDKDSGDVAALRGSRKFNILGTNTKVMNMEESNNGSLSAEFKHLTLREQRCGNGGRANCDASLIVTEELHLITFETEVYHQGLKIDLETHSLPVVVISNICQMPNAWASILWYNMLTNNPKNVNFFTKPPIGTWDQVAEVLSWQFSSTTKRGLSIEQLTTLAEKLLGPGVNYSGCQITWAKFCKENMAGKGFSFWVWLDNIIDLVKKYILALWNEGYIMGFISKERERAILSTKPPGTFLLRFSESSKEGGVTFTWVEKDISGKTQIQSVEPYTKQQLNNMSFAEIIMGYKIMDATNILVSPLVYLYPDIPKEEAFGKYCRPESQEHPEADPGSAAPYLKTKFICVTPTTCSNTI
Assay Name: STAT3 Fluorescence Polarization (FP) Assay
Type: binding
Experimental Setup: STAT3 (G127-I722) 25 nM, probe 5-FAM-GpYLPQTV-NH2 2 nM, 45-minute incubation; read-out: STAT3 (FP assay IC50 class)
pIC50: −log10 of the molar value.
# reported pIC50; entries follow
Assay Metric: pIC50

>>> endpoint_result("N#C[C@H]1CN(C(=O)[C@@H]2CC[C@@H]3CCCC[C@H](NC(=O)c4cc5cc(CP(=O)(O)O)ccc5s4)C(=O)N32)C[C@@H]1c1cc[nH]c(=O)c1 (single isomer, unassigned)")
"5.00 to 6.00"
>>> endpoint_result("COC[C@@H]1CCN1c1ncncc1C1CN(C(=O)[C@@H]2CC[C@@H]3CCC[C@H](NC(=O)c4cc5cc(CP(=O)(O)O)ccc5s4)C(=O)N32)C1")
"> 7.00"
>>> endpoint_result("O=C(N[C@H]1CCC[C@H]2CC[C@@H](C(=O)N3CC(c4cnccc4F)C3)N2C1=O)c1cc2cc(CP(=O)(O)O)ccc2s1")
"> 7.00"
>>> endpoint_result("O=C(N[C@H]1CCC[C@H]2CC[C@@H](C(=O)N3CC(c4ccnc(N5CCOCC5)c4)C3)N2C1=O)c1cc2cc([C@@H](F)P(=O)(O)O)ccc2s1 (single isomer, unassigned)")
"5.00 to 6.00"
>>> endpoint_result("O=Cc1ccncc1C1CN(C(=O)[C@@H]2CC[C@@H]3CCC[C@H](NC(=O)c4cc5cc(CP(=O)(O)O)ccc5s4)C(=O)N32)C1")
"5.00 to 6.00"
>>> endpoint_result("N#C[C@@H]1[C@@H](c2cncc(Cl)c2)CN(C(=O)[C@@H]2CC[C@@H]3CCC[C@H](NC(=O)c4cc5cc([C@H](F)P(=O)(O)O)ccc5s4)C(=O)N32)C12CC2 (single isomer, unassigned) [Compound 842]")
"5.00 to 6.00"
>>> endpoint_result("CC(F)(c1ccc2sc(C(=O)N[C@H]3CCCC[C@H]4CC[C@@H](C(=O)N5CCC(c6cccnc6)C5)N4C3=O)cc2c1)P(=O)(O)O (stereo partly drawn)")
"6.00 to 7.00"
>>> endpoint_result("O=C(N[C@H]1CCC[C@H]2CC[C@@H](C(=O)N3CC(c4cnccc4N4CCOCC4)C3)N2C1=O)c1cc2cc(CP(=O)(O)O)ccc2s1")
"> 7.00"
>>> endpoint_result("COc1c(F)cncc1C1CN(C(=O)[C@@H]2CC[C@@H]3CCC[C@H](NC(=O)c4cc5cc(C(F)P(=O)(O)O)ccc5s4)C(=O)N32)C1 (stereo partly drawn)")
"6.00 to 7.00"
>>> endpoint_result("O=C(N[C@H]1CCCC[C@H]2CC[C@@H](C(=O)N3CCC(c4n[nH]cc4F)CC3)N2C1=O)c1cc2cc(C(F)P(=O)(O)O)ccc2s1 (stereo partly drawn)")
"5.00 to 6.00"
>>> endpoint_result("O=C(N[C@H]1CC[C@H]2CC[C@@H](C(=O)N3CC(C(=O)N4CCOCC4)C3)N2C1=O)c1cc2cc(C(F)(F)P(=O)(O)O)ccc2s1")
"5.00 to 6.00"
>>> endpoint_result("CN(C)c1cncc(C2CN(C(=O)[C@@H]3CC[C@@H]4CCC[C@H](NC(=O)c5cc6cc([C@H](F)P(=O)(O)O)ccc6s5)C(=O)N43)C2)c1Cl (single isomer, unassigned)")
"6.00 to 7.00"
>>> endpoint_result("Cc1c(C#N)cncc1C1CN(C(=O)[C@@H]2CC[C@@H]3CCC[C@H](NC(=O)c4cc5cc(CP(=O)(O)O)ccc5s4)C(=O)N32)C1")
"5.00 to 6.00"
>>> endpoint_result("O=C(N[C@H]1CCCC[C@H]2CC[C@@H](C(=O)N3CC(c4cccnc4)CC34CC4)N2C1=O)c1ccc2ccc(C(F)P(=O)(O)O)cc2c1 (stereo partly drawn)")
"5.00 to 6.00"
>>> endpoint_result("O=C(N[C@H]1CCCC[C@H]2CC[C@@H](C(=O)N3C(=O)N(c4cccnc4)C(=O)C34CC4)N2C1=O)c1cc2cc(C(F)P(=O)(O)O)ccc2s1 (stereo partly drawn)")
"5.00 to 6.00"
>>> endpoint_result("Cn1cccc(C2CN(C(=O)[C@@H]3CC[C@@H]4CCC[C@H](NC(=O)c5cc6cc(C(F)P(=O)(O)O)ccc6s5)C(=O)N43)C2)c1=O (stereo partly drawn)")
"> 7.00"
>>> endpoint_result("O=C(N[C@H]1CCCC[C@H]2CC[C@@H](C(=O)N[C@H]3COC[C@H]3F)N2C1=O)c1cc2cc(C(F)(F)P(=O)(O)O)ccc2s1 (relative stereo)")
"5.00 to 6.00"
>>> endpoint_result("Cc1ncncc1C1CN(C(=O)[C@@H]2CC[C@@H]3CCC[C@H](NC(=O)c4cc5cc(CP(=O)(O)O)ccc5s4)C(=O)N32)C1")
"5.00 to 6.00"
>>> endpoint_result("N#C[C@@H]1[C@@H](c2cncc(Cl)c2)CN(C(=O)[C@@H]2CC[C@@H]3CCCC[C@H](NC(=O)c4cc5cc([C@H](F)P(=O)(O)O)ccc5s4)C(=O)N32)C12CC2 (single isomer, unassigned)")
"5.00 to 6.00"
>>> endpoint_result("COc1cccnc1C1CN(C(=O)[C@@H]2CC[C@@H]3CCC[C@H](NC(=O)c4cc5cc(C(F)(F)P(=O)(O)O)ccc5s4)C(=O)N32)C1")
"6.00 to 7.00"
>>> endpoint_result("O=C(N[C@H]1CCC[C@H]2CC[C@@H](C(=O)N3CC(c4cnccc4OCc4ccncc4)C3)N2C1=O)c1cc2cc(C(F)P(=O)(O)O)ccc2s1 (stereo partly drawn)")
"> 7.00"

====

Measurement Target: pY641-STAT6 in PBMC (Homo sapiens)
Construct: Cryopreserved Peripheral Blood Mononuclear Cells (PBMC) are from AllCells; host or cells: cryopreserved PBMC
Sequence (P42226 whole entry): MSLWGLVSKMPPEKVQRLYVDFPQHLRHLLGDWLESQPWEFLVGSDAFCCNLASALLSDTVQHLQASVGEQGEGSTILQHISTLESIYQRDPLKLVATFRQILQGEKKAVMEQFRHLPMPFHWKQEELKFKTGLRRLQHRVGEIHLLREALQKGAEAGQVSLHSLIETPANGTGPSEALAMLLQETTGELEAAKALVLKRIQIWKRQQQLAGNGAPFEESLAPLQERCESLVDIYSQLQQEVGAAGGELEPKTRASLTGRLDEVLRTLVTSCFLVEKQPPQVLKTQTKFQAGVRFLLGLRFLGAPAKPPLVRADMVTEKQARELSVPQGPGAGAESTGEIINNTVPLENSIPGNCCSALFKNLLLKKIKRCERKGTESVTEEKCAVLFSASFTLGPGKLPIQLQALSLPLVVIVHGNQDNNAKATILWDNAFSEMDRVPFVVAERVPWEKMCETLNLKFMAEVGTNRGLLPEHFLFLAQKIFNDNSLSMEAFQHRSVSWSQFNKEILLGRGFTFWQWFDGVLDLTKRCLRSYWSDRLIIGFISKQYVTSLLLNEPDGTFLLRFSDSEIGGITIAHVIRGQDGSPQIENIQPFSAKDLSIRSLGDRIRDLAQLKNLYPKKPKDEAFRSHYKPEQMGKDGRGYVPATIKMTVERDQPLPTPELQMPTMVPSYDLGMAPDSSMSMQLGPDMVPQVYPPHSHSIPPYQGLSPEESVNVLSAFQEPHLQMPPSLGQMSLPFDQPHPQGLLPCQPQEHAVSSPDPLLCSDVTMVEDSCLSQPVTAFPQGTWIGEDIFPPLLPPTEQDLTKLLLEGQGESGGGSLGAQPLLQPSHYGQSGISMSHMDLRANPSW
Assay Name: MSD-pSTAT-PBMC Assay (pSTAT6, IL-4 stimulated)
Type: cell-based
Experimental Setup: STAT6, PBMC, compound 3 hrs, then 1 ng/mL IL-4 for 10 min; Table 115
# reported IC50; entries follow
Assay Metric: IC50

>>> endpoint_result("CCCOC(=O)[C@H](C)NP(=O)(Oc1ccccc1)[C@@H](F)c1ccc2sc(C(=O)N[C@H]3CCC[C@H]4CC[C@@H](C(=O)N5C(=O)N(c6cccnc6)C(=O)C56CC6)N4C3=O)cc2c1 (stereo partly drawn)")
"100 to 1000 nM"
>>> endpoint_result("CCCOC(=O)[C@H](C)NP(=O)(Oc1ccccc1)[C@@H](F)c1ccc2sc(C(=O)N[C@H]3CCC[C@H]4CC[C@@H](C(=O)N5C[C@@H](c6cccc(C)c6)[C@H](C#N)C56CC6)N4C3=O)cc2c1 (single isomer, unassigned)")
"< 100 nM"
>>> endpoint_result("CCCOC(=O)[C@H](C)NP(=O)(Oc1ccccc1)[C@@H](F)c1ccc2sc(C(=O)N[C@H]3CCCC[C@H]4CC[C@@H](C(=O)N5C[C@@H](c6ccccc6)[C@H](C#N)C56CC6)N4C3=O)cc2c1 (stereo partly drawn)")
"< 100 nM"
>>> endpoint_result("CCCOC(=O)[C@H](C)NP(=O)(Oc1ccccc1)C(F)c1ccc2sc(C(=O)N[C@H]3CCC[C@H]4CC[C@@H](C(=O)N5CC(c6cccnc6)C5)N4C3=O)cc2c1 (stereo partly drawn)")
"1000 to 3000 nM"
>>> endpoint_result("CCCOC(=O)[C@H](C)NP(=O)(Oc1ccccc1)[C@@H](F)c1ccc2sc(C(=O)N[C@H]3CCC[C@H]4CC[C@@H](C(=O)N5C[C@H](c6cncc(OC)c6)[C@@H](C#N)C56CC6)N4C3=O)cc2c1 (single isomer, unassigned)")
"1000 to 3000 nM"
>>> endpoint_result("CCCOC(=O)[C@H](C)NP(=O)(Oc1ccccc1)C(F)c1ccc2sc(C(=O)N[C@H]3CCC[C@H]4CC[C@@H](C(=O)N5CC(c6cccnc6)CC56CC6)N4C3=O)cc2c1 (stereo partly drawn)")
"< 100 nM"
>>> endpoint_result("CCCOC(=O)[C@H](C)N[P@](=O)(Oc1ccccc1)[C@H](F)c1ccc2sc(C(=O)N[C@H]3CCC[C@H]4CC[C@@H](C(=O)N5CC(c6cnccc6N6CCOCC6)C5)N4C3=O)cc2c1 (single isomer, unassigned)")
"> 3000 nM"
>>> endpoint_result("CCCOC(=O)[C@H](C)NP(=O)(Oc1ccccc1)[C@H](F)c1ccc2sc(C(=O)N[C@H]3CC[C@H](N4CCC4)C[C@H]4CC[C@@H](C(=O)N5C[C@@H](c6ccccc6)[C@H](C#N)C56CC6)N4C3=O)cc2c1 (stereo partly drawn)")
"< 100 nM"
>>> endpoint_result("CCCOC(=O)[C@H](C)NP(=O)(Oc1ccccc1)C(F)(F)c1ccc2ccc(C(=O)N[C@H]3CCCC[C@H]4CC[C@@H](C(=O)N5C[C@H](c6cc[nH]c(=O)c6)CC56CC6)N4C3=O)cc2c1 (stereo partly drawn)")
"100 to 1000 nM"
